Quick reference: inhibition of the listed items.
# Tested on: Hepatitis C virus NS3 helicase
# assay.info: HCV NS3 helicase inhibitors, primary screen, biochemical, fluorescence polarization, NIH Clinical Collection (AID 743270)
# applied.conditions: NS3 helicase binding to Cy5-dT15 DNA, hits give high values, concentration not given here
observable: inhibition (%)

- CC(C)CC(NC(=O)C(COC(C)(C)C)NC(=O)C(Cc1ccc(O)cc1)NC(=O)C(CO)NC(=O)C(Cc1c[nH]c2ccccc12)NC(=O)C(Cc1cnc[nH]1)NC(=O)C1CCC(=O)N1)C(=O)N[C@@H](CCCN=C(N)N)C(=O)N1CCCC1C(=O)NNC(N)=O (some centres not stated): -0.22
- CC1(C)SC2C(NC(=O)C(N)c3ccccc3)C(=O)N2C1C(=O)O (configuration not stated): -3.18
- CN(C)S(=O)(=O)c1ccc2c(c1)/C(=C\CCN1CCNCC1)c1ccccc1S2: -0.45
- CCCCC[C@H](O)/C=C/[C@H]1[C@H](O)CC(=O)[C@@H]1CCCCCCC(=O)O: -3.71
- Nc1nc2ccc(Cl)cc2c2nc(-c3ccco3)nn12: -2.77
- CC(C)C[C@H](NC(=O)[C@@H](O)[C@H](N)Cc1ccccc1)C(=O)O: 0.66
- CC1(C)SC2C(NC(=O)Cc3ccccc3)C(=O)N2C1C(=O)O (configuration not stated): -1.36
- C[C@H]1O[C@@H](O[C@H]2[C@@H](O)C[C@H](O[C@H]3[C@@H](O)C[C@H](O[C@H]4CC[C@@]5(C)[C@H](CC[C@@H]6[C@@H]5C[C@@H](O)[C@]5(C)C(C7=CC(=O)OC7)CC[C@]65O)C4)O[C@@H]3C)O[C@@H]2C)C[C@H](O)[C@@H]1O (some centres not stated): -1.36
- COc1cc([C@@H]2c3cc4c(cc3[C@@H](O[C@@H]3O[C@@H]5CO[C@@H](C)O[C@H]5[C@H](O)[C@H]3O)[C@H]3COC(=O)[C@H]23)OCO4)cc(OC)c1O: 0.66
- CC(=O)[C@@]1(O)CC[C@H]2[C@@H]3C[C@H](C)C4=CC(=O)CC[C@]4(C)[C@H]3CC[C@@]21C: -0.22
- CO[C@H]1/C=C/O[C@@]2(C)Oc3c(C)c(O)c4c(O)c(c(C=NN5CCN(C6CCCC6)CC5)c(O)c4c3C2=O)NC(=O)/C(C)=C\C=C\[C@H](C)[C@H](O)[C@@H](C)[C@@H](O)[C@@H](C)[C@H](OC(C)=O)[C@@H]1C: -0.45
- CC(C)(C)NC(=O)[C@@H]1C[C@@H]2CCCC[C@@H]2CN1C[C@@H](O)[C@H](Cc1ccccc1)NC(=O)[C@H](CC(N)=O)NC(=O)c1ccc2ccccc2n1: 2.77
- COc1cccc2c1C(=O)c1c(O)c3c(c(O)c1C2=O)C[C@@](O)(C(=O)CO)C[C@@H]3O[C@H]1C[C@H](N)[C@@H](O)[C@H](C)O1: 4.36
- Cc1sc(N)c(C(=O)c2cccc(C(F)(F)F)c2)c1C: -3.71
- C=CC[C@@H]1C=C(C)C[C@H](C)C[C@H](OC)[C@H]2O[C@@](O)(C(=O)C(=O)N3CCCC[C@H]3C(=O)O[C@H](/C(C)=C/[C@@H]3CC[C@@H](O)[C@H](OC)C3)[C@H](C)[C@@H](O)CC1=O)[C@H](C)C[C@@H]2OC: -1.19
- CC(C)(S)C(N)C(=O)O (configuration not stated): -10.4
- COc1cccc2c1C(=O)c1c(O)c3c(c(O)c1C2=O)C[C@@](O)(C(C)=O)C[C@@H]3OC1CC(N)C(O)C(C)O1 (some centres not stated): 6.82
- CN(C)CC/C=C1/c2ccccc2COc2ccccc21: -1.98
- CN1CCc2cc(Cl)c(O)cc2[C@@H](c2ccccc2)C1: -5.46
- Cc1cccc(CCN2CCC(C(=O)c3ccc(NS(C)(=O)=O)cc3)CC2)n1: -6.33
- NCC(O)c1ccc(O)c(O)c1 (configuration not stated): -2.27
- CCOC(=O)CCC(=O)OC1C(OC2C(C)C(OC3CC(C)(OC)C(O)C(C)O3)C(C)C(=O)OC(CC)C(C)(O)C(O)C(C)C(=O)C(C)CC2(C)O)OC(C)CC1N(C)C (configuration not stated): 0.45
- O=C(O)C[C@H](O)C[C@H](O)/C=C/c1c(C2CC2)nc2ccccc2c1-c1ccc(F)cc1: -2.84
- O=C1CN2Cc3c(ccc(Cl)c3Cl)N=C2N1: -12.3
- N[C@@H](C(=O)N[C@@H]1C(=O)N2C(C(=O)O)=C(CSc3cn[nH]n3)CS[C@H]12)c1ccc(O)cc1 (tested in a mixture with another compound): 21.8
- Cc1c(C(=O)NN2CCCCC2)nn(-c2ccc(Cl)cc2Cl)c1-c1ccc(I)cc1: 0.66
- CC1CC2C3CCC4=CC(=O)C=CC4(C)[C@@]3(Cl)C(O)CC2(C)C1(O)C(=O)CO (some centres not stated): -0.22
- C=C1/C(=C\C=C2/CCC[C@]3(C)[C@@H]([C@H](C)/C=C/[C@@H](O)C4CC4)CC[C@@H]23)C[C@@H](O)C[C@@H]1O: -1.98
- CS(=O)(=O)c1ccc(-c2cc(Br)sc2-c2ccc(F)cc2)cc1: 5.02
- Nc1ncnc2c1ncn2[C@@H]1O[C@H](CO)C[C@@H]1O: -2.77
- CC(=CCC1=C(C)C(=O)c2ccccc2C1=O)CCCC(C)CCCC(C)CCCC(C)C (configuration not stated): -1.36
- CNCC[C@@H](Oc1ccccc1C)c1ccccc1: -0.4
